Here the recorded SI*pIC50 is given for each entry.
# measuredOn: SARS-CoV-2 3CLpro (Severe acute respiratory syndrome coronavirus 2)
# conditionNotes: SARS-CoV pIC50 multiplied by similarity index (SI), training set compounds
// return just the number, without any unit appended

Look over these answered cases.
CC(C)c1cc2c(cc1O)[C@@]1(C)CCCC(C)(C)[C@@H]1CC2 | 4.457
COc1ccc(-c2cc(=O)c3c(O)cc(O)c(-c4cc(-c5cc(=O)c6c(O)cc(OC)cc6o5)ccc4OC)c3o2)cc1 | 4.568

Query block: Give SI*pIC50 (SARS-CoV-2 3CLpro (Severe acute respiratory syndrome coronavirus 2)) of the following compound: Cc1c(O)c(O)cc2c1CC=C1[C@@]2(C)CC[C@@]2(C)[C@@H]3C[C@](C)(C(=O)O)CC[C@]3(C)CC[C@]12C
Result block: 4.816

Query block: Would you kindly repeat that for O=C(Oc1cncc(Cl)c1)c1cc2ccccc2o1 ?
Result block: 6.921
